For each entry below, report its pKd value.
tested_target: canine FcRn complex (FcRn-alpha subunit and beta-microglobulin), His-tagged, biotin labeled (canine)
experiment: SPR (Biacore), biotin-FcRn captured on SA surface, IgG flowed over, pH 6, 15 C
One number for each entry, as −log10 of the molar value.

Example entries and their recorded answers appear below.
canine IgGB (65) mAb with mutation T286M (antibody, part only; not given: variable domains of unnamed mAb, not shown: another chain or arm of the molecule) constant: ASTTAPSVFPLAPSCGSTSGSTVALACLVSGYFPEPVTVSWNSGSLTSGVHTFPSVLQSSGLYSLSSMVTVPSSRWPSETFTCNVAHPASKTKVDKPVPKRENGRVPRPPDCPKCPAPEMLGGPSVFIFPPKPKDTLLIARTPEVTCVVVDLDPEDPEVQISWFVDGKQMQMAKTQPREEQFNGTYRVVSVLPIGHQDWLKGKQFTCKVNNKALPSPIERTISKARGQAHQPSVYVLPPSREELSKNTVSLTCLIKDFFPPDIDVEWQSNGQQEPESKYRTTPPQLDEDGSYFLYSKLSVDKSRWQRGDTFICAVMHEALHNHYTQESLSHSPGK : 8.28
canine IgGB (65) mAb with mutation A426Q (antibody, part only; not given: variable domains of unnamed mAb, not shown: another chain or arm of the molecule) constant: ASTTAPSVFPLAPSCGSTSGSTVALACLVSGYFPEPVTVSWNSGSLTSGVHTFPSVLQSSGLYSLSSMVTVPSSRWPSETFTCNVAHPASKTKVDKPVPKRENGRVPRPPDCPKCPAPEMLGGPSVFIFPPKPKDTLLIARTPEVTCVVVDLDPEDPEVQISWFVDGKQMQTAKTQPREEQFNGTYRVVSVLPIGHQDWLKGKQFTCKVNNKALPSPIERTISKARGQAHQPSVYVLPPSREELSKNTVSLTCLIKDFFPPDIDVEWQSNGQQEPESKYRTTPPQLDEDGSYFLYSKLSVDKSRWQRGDTFICQVMHEALHNHYTQESLSHSPGK : 8.08
canine IgGB (65) mAb with mutation T286Q (antibody, part only; not given: Variable domains, not shown: another chain or arm of the molecule) constant: ASTTAPSVFPLAPSCGSTSGSTVALACLVSGYFPEPVTVSWNSGSLTSGVHTFPSVLQSSGLYSLSSMVTVPSSRWPSETFTCNVAHPASKTKVDKPVPKRENGRVPRPPDCPKCPAPEMLGGPSVFIFPPKPKDTLLIARTPEVTCVVVDLDPEDPEVQISWFVDGKQMQQAKTQPREEQFNGTYRVVSVLPIGHQDWLKGKQFTCKVNNKALPSPIERTISKARGQAHQPSVYVLPPSREELSKNTVSLTCLIKDFFPPDIDVEWQSNGQQEPESKYRTTPPQLDEDGSYFLYSKLSVDKSRWQRGDTFICAVMHEALHNHYTQESLSHSPGK : 8.07

Recorded pKd of canine IgGB (65) mAb with mutation Y436V (antibody, part only; not given: variable domains of unnamed mAb, not shown: another chain or arm of the molecule) constant: ASTTAPSVFPLAPSCGSTSGSTVALACLVSGYFPEPVTVSWNSGSLTSGVHTFPSVLQSSGLYSLSSMVTVPSSRWPSETFTCNVAHPASKTKVDKPVPKRENGRVPRPPDCPKCPAPEMLGGPSVFIFPPKPKDTLLIARTPEVTCVVVDLDPEDPEVQISWFVDGKQMQTAKTQPREEQFNGTYRVVSVLPIGHQDWLKGKQFTCKVNNKALPSPIERTISKARGQAHQPSVYVLPPSREELSKNTVSLTCLIKDFFPPDIDVEWQSNGQQEPESKYRTTPPQLDEDGSYFLYSKLSVDKSRWQRGDTFICAVMHEALHNHVTQESLSHSPGK , please. 8.25
